Where do the numbers come from? From PubChem BioAssay.

Kindly state inhibition for each of the entries shown.
Assay: inhibitors of PAF-induced NFkB signaling in CF airway cells, dose response, cell-based, uHTS hits, panel, cytotoxicity readout (AID 624344)
Details: CF bronchial epithelial cells, PAF-induced NFkB reporter inhibition, with PAF, run 1; at 79 µM (top of the series) unless noted
Supply the numeric figure in %, leaving out any unit text.

Supply measured inhibition of `C=CCOc1c(OC)cc(/C=N/Nc2cccc(C(=O)O)c2)c(Br)c1Br` in your reply.
103

Specify reported inhibition for the molecule shown: `COc1ccccc1-n1nnnc1S(=O)(=O)Cc1ccc(Cl)cc1`
110

Give the reported inhibition for this molecule. `COc1ccc(-c2cn[nH]c2-c2ccc(OC)cc2)cc1`
104

Report inhibition, nothing else, for this molecule: `CCN(CC)S(=O)(=O)c1ccc(NC(=O)Nc2cccc(C(F)(F)F)c2)cc1`
114

Assign inhibition to the following record: `Cc1ccc2nc(SCC(=O)Nc3cc(C(F)(F)F)ccc3N3CCOCC3)[nH]c2c1`
81.3

Retrieve inhibition measured for CC(=O)Nc1ccc(-c2ccnc3c2CC(C(=O)NCc2ccco2)O3)cc1 (stereo not given) and print it.
70

Answer with the recorded inhibition for the molecule listed here: CCOc1ccc(C(C(=O)NCC2CCCO2)N(Cc2cccs2)C(=O)c2snc(C(N)=O)c2N)cc1 (stereo not given)
99.5

For the molecule O=C1C=C(NC2=CC3OC(c4ccccc4)OCC3OC2=O)CCC1 (stereo not given) , give its measured inhibition value.
103

Please give the documented inhibition of CN(c1ncnc(N)c1[N+](=O)[O-])C1CCS(=O)(=O)C1 (stereo not given)
96.8

For the molecule `O=C(c1[nH]c(C(F)(F)F)nc1-c1ccccc1)N1CCN(c2c(Cl)cncc2Cl)CC1` , report inhibition.
103

====

Target: PEG-3 (UniProt Q6IN02)
Sequence (Q6IN02 whole entry, looked up): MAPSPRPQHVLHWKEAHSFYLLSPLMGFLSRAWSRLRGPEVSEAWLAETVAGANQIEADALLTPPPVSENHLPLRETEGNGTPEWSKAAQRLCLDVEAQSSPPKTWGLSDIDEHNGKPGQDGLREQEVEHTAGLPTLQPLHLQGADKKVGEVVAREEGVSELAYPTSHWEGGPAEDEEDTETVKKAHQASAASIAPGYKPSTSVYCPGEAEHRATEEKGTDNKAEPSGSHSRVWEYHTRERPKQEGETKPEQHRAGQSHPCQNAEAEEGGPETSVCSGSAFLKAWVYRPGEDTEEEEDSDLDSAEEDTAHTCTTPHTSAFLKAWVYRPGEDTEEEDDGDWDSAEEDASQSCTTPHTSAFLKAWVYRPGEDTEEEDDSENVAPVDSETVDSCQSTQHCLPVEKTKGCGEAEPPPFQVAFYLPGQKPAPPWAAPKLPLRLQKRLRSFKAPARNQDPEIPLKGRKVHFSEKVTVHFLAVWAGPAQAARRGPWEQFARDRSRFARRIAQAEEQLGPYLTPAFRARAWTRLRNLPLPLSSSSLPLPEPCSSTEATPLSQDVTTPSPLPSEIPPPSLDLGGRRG
Experiment: Peg3 promoter luciferase inhibitors, potency, dose response, cell-based, HeLa, CREF/GAPDH counter-screen panel (AID 624167)
Settings: CREF/GAPDH counter-screens; HeLa PEG-Prom luciferase reporter, overnight, run 2, dose range 1, at 100 µM (top of the series) unless noted
metric-name: inhibition (%)
Enter your answer as a number in %; do not include the unit.

Specify reported inhibition for the compound shown: `CCOC(=O)c1c(NC(=O)COc2ccccc2F)sc2c1CC(C)(C)NC2(C)C`
102

Note down inhibition recorded for `Cc1ccc(N(Cc2cc(=O)[nH]c3ccccc23)C(=O)CCl)c(C)c1`
99.2

Provide one value: measured inhibition of `O=C1/C(=C\c2cccc(O)c2O)SC(=S)N1Cc1ccccc1`
101

Identify inhibition associated with the compound `Cc1ccc(OCC(=O)c2cc(C)n(Cc3ccco3)c2C)c([N+](=O)[O-])n1`
62.9

For the compound `CCN(CC)CCNc1cccc2sc3ccccc3c(=O)c12` , report inhibition.
95.9

Look up inhibition of `Cc1cc(C)c2sc(N(CCCN(C)C)C(=O)c3ccc(S(=O)(=O)N4CCCc5ccccc54)cc3)nc2c1` and report it.
99.2

Determine its reported inhibition: `CNCC[C@H](Oc1cccc2ccccc12)c1cccs1`
98.8

Check the records and state inhibition for COc1ccc2c(c1OC)C(=O)N1c3ccccc3C(=O)N(c3ccccc3F)C21 (stereo not given)
68.7

Give the value of inhibition reported for the following: COc1cccc(CN(C)C(=O)C(CCSC)NS(=O)(=O)c2ccc3c(c2)OCCO3)c1OC (stereo not given)
99.1

====

Molecular target: Tumor necrosis factor receptor superfamily member 10B (Homo sapiens)
Assay: caspase-8 TRAIL sensitization, hit retest, confirmation, cell-based, NB7+caspase-8, with/without TRAIL, luminescence panel (AID 651596)
Conditions: NB7 neuroblastoma + caspase-8, TRAIL sensitization, luminescence viability, with TRAIL, mean of runs, at 10 µM, stronger effect = higher value
Record form. Attribute: activity. Fill in for each entry.
Please answer using a numeric value trailed by its unit.

Dear colleague, please send me the reported activity for `Fc1cccc2sc(Nc3nnc(-c4ccccc4)o3)nc12` when you can.
71%

Identify the reported activity for the following entry. CCc1ccc(C2=NN(C(=O)OC)C(O)(C(F)(F)F)C2)cc1 (configuration not stated)
45.8%

Supply measured activity of COc1ccc(C(C(=O)NC2CCCCC2)N(C(=O)CCl)c2ccc(Cl)cc2)cc1 (configuration not stated) in your reply.
98.4%

Report activity, nothing else, for this molecule: `O=C(NC(=S)Nc1ccccn1)c1ccc(-c2ccccc2)cc1`
76.3%

State, in one line, measured activity of `Cc1ccc2cc(/C=N/Nc3nc4ccccc4[nH]3)c(Cl)nc2c1`
88.2%

Determine its reported activity: `O=C(Nc1nc2cc3c(cc2s1)OCO3)c1ccco1`
79.5%

Identify activity associated with the molecule `Cc1ccc(NC(=O)Cn2ncc(Cl)c(Cl)c2=O)cc1S(=O)(=O)N1CCCCC1`
86.5%

Provide one value: measured activity of `O/C(=C\c1ccc2ccccc2n1)c1ccc(O)cc1O`
62.3%

Look up and state reported activity for `COc1ccccc1-c1cc2nc(-c3ccccc3)cc(N3CCN(C(=O)c4ccoc4)CC3)n2n1`
78.4%

Give the reported activity for this molecule. `COc1ccccc1OCCNC(=O)c1ccc2c(c1)OCCO2`
41%

Please indicate activity recorded for `COc1ccc(Oc2c(Cl)cnn(-c3ccc(Cl)c(Cl)c3)c2=O)cc1`
98.5%

# return recorded activity for entry `Cc1ccc(C(=O)Nc2ccc3c(c2)OCCO3)cc1`
90.4%

Report measured activity; entry is O=C(NC1CCCCC1)C(c1cccnc1)N(C(=O)CCl)c1cccc(Cl)c1 (configuration not stated)
99.3%

Name the recorded activity of the molecule listed here: `COc1ccc(C(=O)Nc2ccccc2C(=O)Nc2cccnc2)cc1`
58.9%

For the molecule `CCN1CCN(Cc2ccc(NC(=O)c3ccc(C)c(NC(=O)c4c[nH]c5cc(C(F)(F)F)ccc5c4=O)c3)cc2C(F)(F)F)CC1` , report activity.
98.8%

Specify reported activity for the molecule shown: `Cc1ccccc1C(=O)N1CCN(c2ccc(NC(=O)c3ccc([N+](=O)[O-])o3)cc2)CC1`
86%

Let me know recorded activity for `O=C(CCl)Nc1cccc(-c2cnc3ccccc3n2)c1` , thanks.
99.3%

Answer with the recorded activity of `C#CCN(C[C@@H]1[C@@H](OC(=O)NCCCCCC)[C@@H](OC(=O)NCCCCCC)Cn2c(=O)ccc(=O)n21)S(=O)(=O)c1ccc(C)cc1` only.
96.2%

Entry `Cn1cccc1/C=C1\CCc2ccccc2C1=O` needs its activity filled in; supply it.
63.4%

Query activity for `Cn1c(-c2ccccc2)cc2onc(-c3ccccc3)c2c1=O`
85.5%

Determine its reported activity: `CC(C)N1CCc2c(sc(NC(=O)c3ccc([N+](=O)[O-])o3)c2C(N)=O)C1`
-2.23%

Look up and state reported activity for `COc1ccc(-c2cc3cccc(OC)c3oc2=O)cc1`
81.8%

====

Experiment: Apaf-1 inhibitors, single-dose retest, confirmation, biochemical, fluorescence, DEVD-Rh110, 20 µM (AID 504614);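 also: plate controls were DMSO wells for no effect and DEVD-CHO caspase inhibitor control wells for full effect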
Details: reconstituted apoptosome, caspase-3 DEVD-Rh110 fluorescence; at 20 µM; stronger effect = higher value
This is one part of the list.
Outcome: satisfied for inhibition of at least 20%; not satisfied for anything lower.

Confirm if inhibition reported for the compound `c1ccc2c(CCN3CCNC[C@H]3Cc3cccc4ccccc34)cccc2c1` is 20% or above.
satisfied

Could you tell me if the measured inhibition of `Cc1ccc2nc(N3CCN(C(=O)c4ccco4)CC3)sc2c1` reaches 20% or more?
not satisfied

Given the entry `O=C1Nc2ccc([N+](=O)[O-])cc2C1=Nc1cccc(CO)c1` , answer whether its inhibition meets or surpasses 20%.
satisfied

Could you please find out whether `Cc1ccc(C(=O)N/N=C\c2cc(Br)c(Br)o2)cn1` has inhibition that meets 20% or exceeds it?
not satisfied

Could you verify whether the entry `CCCC[C@@H]1CN=C(N)N1CCc1cc(C(F)(F)F)cc(C(F)(F)F)c1` shows inhibition of no less than 20%?
not satisfied

Exam item: decide whether the reported inhibition for `NC[C@H](Cc1ccccc1)NCCc1cc(C(F)(F)F)cc(C(F)(F)F)c1` is at least 20%.
not satisfied

====

Experiment: luciferase luminescence interference by compounds, confirmation, artefact control for SENP inhibitor project, biochemical, single concentration, SENP8 reaction pre-completed (AID 488919);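 also: plate controls were DMSO wells with completed reaction for no effect and substrate without enzyme for full effect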
Conditions: Pre-incubated SENP8/Z-RLRGG-aminoluciferin, at 12.5 µM, stronger effect = higher value
Some of the results follow.
metric-name: inhibition (%)
Kindly answer with a numeric value in %, unit omitted.

Provide inhibition value for the following molecule: `O=c1c2c(nc3n1CCCCC3)sc1c(O)cccc12`
61.9

Report inhibition for `Fc1ccc(COc2ccc(-c3nnco3)cc2)cc1`
65.6

Let me know recorded inhibition for `COc1ccc(-c2cn3ccsc3n2)cc1` , thanks.
56.3

Query inhibition for `CC(C)Cc1cc(C(=O)Nc2cc(Br)ccc2O)no1`
7.1

Note inhibition for the molecule shown: `Cc1ccnc(NC(=O)c2ccoc2C)c1`
80.1

Please indicate inhibition recorded for COCCn1nnnc1C(c1cc2ccc(OC)cc2[nH]c1=O)N1CCc2ccccc2C1 (stereo not drawn)
-2

In one line, give reported inhibition of the entry `O=C(O)c1ccc2c3c(cccc13)C(=O)N(OS(=O)(=O)c1ccccc1)C2=O` .
53.8

Supply inhibition value. Item: `C/C(=N\NC(=O)c1ccc(C)cc1)C1C(=O)c2ccccc2C1=O`
94.1

Supply measured inhibition of `CCOc1ccc(C(=O)Nc2cccc(SC)c2)cc1` in your reply.
85.8

Using the record for `Cn1c(-c2ccc(C(=O)c3ccccc3)s2)nc2ccccc21` , state its measured inhibition.
8.8

For the molecule `O=C(Nc1nnc(SCc2ccccc2)s1)c1ccco1` , report inhibition.
13.1

Report inhibition for `Cc1ccc(C(=O)N/N=C\c2cc(Br)c(Br)o2)cn1`
-0.7

Given the molecule `CC(=O)c1sc(NC(=O)c2ccc(C)cc2)nc1C` , write its reported inhibition.
-5.6

Give the value of inhibition reported for the following: O=C1/C(=C/c2cccs2)CCC1C1CCCC1 (stereo not drawn)
36.6

Assign inhibition to the following record: `COc1ccccc1-c1nnc(-c2ccc(F)cc2)o1`
60.3

Please report the measured inhibition for `N/C(=N\OC(=O)c1ccc2c(c1)OCO2)c1ccc(Br)cc1`
3.3

Return the recorded inhibition value; entry: `O=C(OCC(=O)N1CCN(c2ccccc2)CC1)c1ccc([N+](=O)[O-])s1`
-3.3

Provide one value: measured inhibition of `CNc1nc(Nc2ccc(C)c(Cl)c2)nc(N)c1[N+](=O)[O-]`
18.3

Tell me its inhibition given `Cc1cc(N=Nc2ccc3ccccc3c2)ccc1O` as the entry.
76.6

Please report the measured inhibition for `CCc1ccc(NC(=O)C(=O)NNC(=O)c2cccs2)cc1`
5.2

Tell me inhibition reported for `CCc1ccc(C(=O)COC(=O)c2ccco2)cc1`
68

For the molecule `N/C(=N\OC(=O)CCC1CCCCC1)c1ccccn1` , give its measured inhibition value.
43.5

Please list inhibition recorded for the molecule `Fc1ccccc1/C=N/Nc1cc(N2CCCCC2)ncn1`
6.6

Return value of inhibition for input `O=C(ON=C1CCN(S(=O)(=O)c2ccccc2)CC1)c1ccc(Cl)cc1` , no commentary.
-1.9

State, in one line, measured inhibition of COc1ccccc1NC(=O)c1ccc(N2CC3CC(C2)c2cccc(=O)n2C3)c(NC(=O)c2cccnc2)c1 (stereo not drawn)
3.7

Give reported inhibition value for `N#Cc1c(N2CCCCC2)nc(N)c2c(N)nc(SCC(=O)O)cc12`
-0.2

Note down inhibition recorded for `O=C(N/N=C/c1cccnc1)c1cc2ccccc2cc1O`
53.8

Name the recorded inhibition of the molecule listed here: O=C1C(=O)N(CCCN2CCOCC2)C(c2ccc([N+](=O)[O-])cc2)/C1=C(\O)c1ccc2c(c1)OCCO2 (stereo not drawn)
-12.5

Look up and state reported inhibition for `Cc1[nH][nH]c(=O)c1C(c1ccc(-c2ccc(Cl)cc2)o1)c1c(C)[nH][nH]c1=O`
1.7

Answer with the recorded inhibition of `COc1ccc2nc(Nc3nc4cc5c(cc4s3)OCCO5)sc2c1` only.
24.3

Provide one value: measured inhibition of `CC(=O)Nc1cccc(C(=O)OCC(=O)c2ccc3c(c2)OCO3)c1`
80.8

Find the measured inhibition of `CCOC(=O)c1cnc2[nH]c3ccccc3n2c1=O` and report it.
65.2

Input `COc1cc(NC(=O)COC(=O)c2ccc([N+](=O)[O-])s2)cc(OC)c1OC` , output reported inhibition.
0.3

Specify inhibition for `Cn1c(NC(=O)c2ccccc2)nc2ccccc21` and stop.
65.2

Tell me its inhibition given `CC1=CC(=C(C#N)c2nc3ccccc3s2)C=C(C)N1c1ccc(F)cc1F` as the entry.
-9.8

Supply measured inhibition of `COc1cccc(C(=O)Nc2nc3ccc(S(C)(=O)=O)cc3s2)c1` in your reply.
73.5

Return value of inhibition for input `O=C1/C(=C/c2cccs2)CCc2ccccc21` , no commentary.
97.6

Check the records and state inhibition for `O=C(Nc1sc2c(c1C(=O)O)CCC2)c1ccccc1F`
94.5

Give recorded inhibition. `CN(c1ccc2nc3ccccc3c(=O)n2n1)C1CCCCC1`
77.2

Complete the entry with inhibition for `CCSc1nnc(NC(=O)c2ccc(C)cc2)s1`
2

Provide one value: measured inhibition of `COc1ccc(/C=N/Nc2ccccc2C(=O)O)cc1`
97.6

Give reported inhibition value for `Cc1ccc(-n2ncc3c(Nc4cccc(C(=O)O)c4)ncnc32)cc1`
83.5

Let me know recorded inhibition for `Cc1ccc(-c2nc3ccccc3[nH]2)cc1N` , thanks.
92.3

Read the entry `O=c1c2ccccc2ncn1/N=C/c1ccccc1` and write its reported inhibition.
69

Look up and report measured inhibition for this entry: `CC(=O)Oc1ccc2c(=O)oc(-c3ccc([N+](=O)[O-])cc3)nc2c1`
-4.7

Quick one: give measured inhibition for `COc1cccc(C(=O)c2cc3ccc(O)cc3oc2=O)c1`
98

Identify the reported inhibition for the following entry. `COc1ccccc1OCc1nc2ccccc2s1`
95.3

State its inhibition: `Cc1[nH]n(C(N)=S)c(=O)c1N=Nc1ccc(Cl)cc1Cl`
38.9
